Values were extracted from the supplement of paper PMC8149375.

Reported AUC of dose-response viability curve by item:
Tested on: SN12C
Experiment: AUC of dose-response viability curve, drug alone (arbitrary (AUC of normalised viability)); higher = less growth inhibition
Conditions: treatment: drug alone; 5 days

| compound | AUC of dose-response viability curve |
| --- | --- |
| Nc1ccc(-c2ccc3ncc4ccc(=O)n(-c5cccc(C(F)(F)F)c5)c4c3c2)cn1 [Torin 2] | 1.02 |
| O=C1NC(=O)[C@@H](c2cn3c4c(cccc24)CCC3)[C@@H]1c1c[nH]c2ccccc12 [ARQ 197 (Tivantinib)] | 2.86 |
| CCN(CCO)CCCOc1ccc2c(Nc3cc(CC(=O)Nc4cccc(F)c4)n[nH]3)ncnc2c1 [Barasertib (AZD1152-HQPA)] | 3.06 |
| CC1(C)CNc2cc(NC(=O)c3cccnc3NCc3ccncc3)ccc21.O=P(O)(O)O.O=P(O)(O)O [Motesanib Diphosphate] | 3.19 |
| O=C(c1ccc(/C=C/c2n[nH]c3ccccc23)cc1)N1CCNCC1 [KW 2449] | 3.03 |
| Cc1cc(CN2CCN(c3c(Br)cnc4[nH]c(-c5ccc(N6CCN(C)CC6)cc5)nc34)CC2)no1 | 2.74 |
| COc1cc2nccc(Oc3ccc(NC(=O)Nc4ccc(F)cc4F)c(F)c3)c2cc1OC [Ki8751] | 3.45 |
